Taken from paper PMC5397059.

- procedure-details: Chemi-Luminescent Nitrogen Detection (CLND) kinetic solubility assay
- Assay type: physicochemical
- run-parameters: phosphate buffered saline, pH 7.4; kinetic aqueous solubility, Table 1; read-out: Solubility CLND
Non-standard residues stand in square brackets, D forms with d. Residues, ends and D or L forms follow the SMILES beside them. dOrn = NCCC[C@@H](N)C(=O)O
experimental-endpoint: solubility kinetic at 1 h (µg/mL)
Give bare numbers, in µg/mL.

[Q] Fill blank: measured solubility kinetic at 1 h of the molecule CC(C)C[C@@H]1NC(=O)[C@H](Cc2c[nH]c3ccccc23)NC(=O)[C@@H](CCCN)NC(=O)[C@H](CC(N)=O)NC(=O)[C@H](C(C)C)NC(=O)[C@@H](CC(C)C)NC1=O [Compound 1c, wollamide B] (cyclo([dOrn]WL[dL]VN)) is ____.
[A] 151

###

- procedure-details: Artificial membrane permeability assay
- Format: in vitro ADME
- run-parameters: PAMPA, pH 7.4; passive artificial membrane permeability; read-out: Permeability
Non-standard residues stand in square brackets, D forms with d. Residues, ends and D or L forms follow the SMILES beside them. dPhe(4-Cl) = N[C@H](Cc1ccc(Cl)cc1)C(=O)O; dOrn = NCCC[C@@H](N)C(=O)O
experimental-endpoint: Papp at 3 h

Examples from the recorded data:
CC[C@H](C)[C@@H]1NC(=O)[C@H]([C@@H](C)CC)NC(=O)[C@@H](CC(C)C)NC(=O)[C@H](CC(C)C)NC(=O)[C@H](Cc2c[nH]c3ccccc23)NC(=O)[C@@H](CCCN)NC1=O [Compound 12c] (cyclo(II[dOrn]WL[dL])) : 1.9 ×10⁻⁶ cm/s
CC[C@H](C)[C@@H]1NC(=O)[C@H](Cc2c[nH]c3ccccc23)NC(=O)[C@@H](CCCN)NC(=O)[C@H](CC(N)=O)NC(=O)[C@H](C(C)C)NC(=O)[C@@H](CC(C)C)NC1=O [Compound 19c] (cyclo(I[dL]VN[dOrn]W)) : < 1 ×10⁻⁶ cm/s
CSCC[C@@H]1NC(=O)[C@@H](CC(C)C)NC(=O)[C@H](CC(C)C)NC(=O)[C@H](Cc2c[nH]c3ccccc23)NC(=O)[C@@H](CCCN)NC(=O)[C@H](CC(N)=O)NC1=O [Compound 8c] (cyclo(L[dL]MN[dOrn]W)) : < 1 ×10⁻⁶ cm/s
CC(C)C[C@@H]1NC(=O)[C@H](Cc2c[nH]c3ccccc23)NC(=O)[C@@H](CCCN)NC(=O)[C@H](CC(N)=O)NC(=O)[C@H](C(C)C)NC(=O)[C@@H](Cc2ccc(Cl)cc2)NC1=O [Compound 16c] (cyclo(L[dPhe(4-Cl)]VN[dOrn]W)) : < 0.3 ×10⁻⁶ cm/s
CC(C)C[C@@H]1NC(=O)[C@H](Cc2c[nH]c3ccccc23)NC(=O)[C@@H](CCCN)NC(=O)[C@@H](CCCN)NC(=O)[C@H](C(C)C)NC(=O)[C@@H](CC(C)C)NC1=O [Compound 9c] (cyclo(L[dL]V[dOrn][dOrn]W)) : 1 ×10⁻⁶ cm/s
CC[C@H](C)[C@@H]1NC(=O)[C@@H](CC(C)C)NC(=O)[C@H](CC(C)C)NC(=O)[C@H](Cc2c[nH]c3ccccc23)NC(=O)[C@@H](CCCN)NC(=O)[C@H](CC(N)=O)NC1=O [Compound 7c] (cyclo(IN[dOrn]WL[dL])) : < 1 ×10⁻⁶ cm/s
CC(C)C[C@H]1NC(=O)[C@@H](Cc2ccc(Cl)cc2)NC(=O)[C@H](Cc2c[nH]c3ccccc23)NC(=O)[C@@H](CCCN)NC(=O)[C@H](CC(N)=O)NC(=O)[C@H](C(C)C)NC1=O [Compound 17c] (cyclo(N[dOrn]W[dPhe(4-Cl)][dL]V)) : 1.7 ×10⁻⁶ cm/s

For the next question, use this molecule.
[Q] Return reported Papp at 3 h; argument: COc1ccc(C[C@@H]2NC(=O)[C@@H](CCCN)NC(=O)[C@H](CC(N)=O)NC(=O)[C@H](C(C)C)NC(=O)[C@@H](CC(C)C)NC(=O)[C@H](CC(C)C)NC2=O)cc1 [Compound 15c] (cyclo(L[dL]VN[dOrn]Y(Me)))
[A] < 1 ×10⁻⁶ cm/s
